Measured neutralization IC50 accompanies every entry in the list below.
Target: Env of HIV-1 strain REJO4541.67 (HIV-1)
Test: cell-based or functional assay
Give a bare numeral; the unit µg/mL is implied.

1) γ59κ3 (antibody, V domains shown) VH: QIHLVQSGTEVKKPGSSVTVSCKAYGVNTFGLYAVNWVRQAPGQGLEYIGQIWRWKSSASHHFRGRVLISAVDLTGSSPPISSLEIKNVTSDDTAVYFCTTTSTYDEWSDLHHDGVMAFSSWGQGTLISVSA VL: DIQMTQSPSTLSASIGDTVRISCRASQSITGNWLAWYHQRPGKAPRLLIYRGSRLLGGVPSRFSGSAAGTDFTLTIANLQAEDFGTFYCQQYDTYPGTFGQGTKVEVKR ... 8.54

// next entry
Sample γ23κ5 (antibody, V domains shown) VH: QIHLVQSGTEVKKPGSSVTVSCKAYGVNTFGLYAVNWVRQAPGQSLEYIGQIWRWKSSASHHFRGRVIISAVDLTGSSPPISSLEIKNLTSDDTAVYFCTTTSTSDYWSGLHHDGVMAFSSWGQGTLISVSA VL: DIQMTQSPSTLSASTGDTVRISCRASQSITGNWVAWYQQRPGKAPRLLIYRGAALLGGVPSRFRGSAAGTDFTLTIGNLQAEDFGTFYCQQYDTYPGTFGQGTKVEVKR — what was its neutralization IC50?
0.091
